# ASSAY_TARGET: T1, human SIRPα v3-Fc (SIRPα3 extracellular domain fused to human IGHG1_Fc) (human, UniProt P78324 31-373; P0DOX5 223-449 = IgG part)
# T1 construct: as m38; also called V3 (e.g. SIRPα3)
# TEST_DESCRIPTION: BLI Octet, antigen-Fc on biosensor;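 further: antigen captured on the biosensor tip and then immersed in solutions of the test antibodies, which act as the analyte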
Each entry below carries its reported Kd.
MEASURED_ENDPOINT: Kd (nM)

INSERT INTO measurements (binder, measured_endpoint, value_observed) VALUES
  ('SIRPAB-7 (antibody, human IgG1, kappa, V domains shown) VH: QVQLQESGPGLVKPSQTLSLTCTVSGGSISSGEYYWEWIRQHPGKGLEWIGYIYSSGFTYYNPSLKSRVTISVDTSKNQFSLKLSSVTAADTAVYYCAREGLDGSYGSSAWGQGTLVTVSS VL: DIQLTQSPSSLSASVGDRVTITCQASQDISNYLNWYQQKPGKAPKLLIYDASNLETGVPSRFSGSGSGTDFTFTISSLQPEDIATYYCQQFAYLPYTFGGGTKVEIKR', 'Kd', 10.2),
  ('SIRPAB-13 (antibody, human IgG1, kappa, V domains shown) VH: QVQLVQSGAEVKKPGASVKVSCKASGYTFHGYGISWVRQAPGQGLEWMGWISAYSGETNYAQKLQGRVTMTTDTSTSTAYMELRSLRSDDTAVYYCAREAGSSWYDFDLWGRGTLVTVSS VL: DIQMTQSPSSVSASVGDRVTITCRASQGISSWLAWYQQKPGKAPKLLIYAASNLQSGVPSRFSGSGSGTDFTLTISSLQPEDFATYYCQQGASFPITFGGGTKVEIKR', 'Kd', 0.83),
  ('SIRPAB-10 (antibody, human IgG1, kappa, V domains shown) VH: QVQLVQSGAEVKKPGASVKVSCKASGYTFTGYPISWVRQAPGQGLEWMGWIYAYGGNTNYAQKLQGRVTMTTDTSTSTAYMELRSLRSDDTAVYYCAREAGSSWYDFDLWGRGTLVTVSS VL: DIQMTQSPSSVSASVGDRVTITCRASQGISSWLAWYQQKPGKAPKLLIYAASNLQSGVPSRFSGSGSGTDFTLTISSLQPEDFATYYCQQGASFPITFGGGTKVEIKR', 'Kd', 0.21);
